Data origin, for the record: ChEMBL document CHEMBL1134069

Biological target: UniProt Q9XZT6
Sequence (Q9XZT6 whole entry): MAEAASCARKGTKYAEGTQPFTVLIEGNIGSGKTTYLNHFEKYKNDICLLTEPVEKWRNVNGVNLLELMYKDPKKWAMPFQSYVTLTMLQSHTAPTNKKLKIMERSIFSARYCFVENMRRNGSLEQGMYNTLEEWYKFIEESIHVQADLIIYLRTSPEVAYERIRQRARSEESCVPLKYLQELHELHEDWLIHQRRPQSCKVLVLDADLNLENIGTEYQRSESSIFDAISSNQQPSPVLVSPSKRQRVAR
Kindly apply the following: yes if IC50 is less than 200 µM, no in every other case.

For this molecule, is IC50 lower than 200 µM? "CCCCC(=O)O[C@H]1[C@H](O)[C@@H](CO)O[C@H]1n1cc(C)c(=O)[nH]c1=O" no

For this molecule, is IC50 lower than 200 µM? "Cc1cn([C@@H]2O[C@H](CO)[C@@H](O)[C@@H]2O)c(=O)[nH]c1=O" yes

For this molecule, is IC50 lower than 200 µM? "CCCCCCCC(=O)O[C@H]1[C@H](O)[C@@H](CO)O[C@H]1n1cc(/C=C/Br)c(=O)[nH]c1=O" yes

For this molecule, is IC50 lower than 200 µM? O=c1[nH]c(=O)n(C2O[C@H](CO)[C@@H](O)[C@@H]2O)cc1/C=C\Br (some centres undefined) yes

For this molecule, is IC50 lower than 200 µM? "CCCCCCCCCCCC(=O)O[C@H]1[C@H](O)[C@@H](CO)O[C@H]1n1cc(C)c(=O)[nH]c1=O" no

For this molecule, is IC50 lower than 200 µM? "CCCCCCCCCC(=O)O[C@H]1[C@H](O)[C@@H](CO)O[C@H]1n1cc(C)c(=O)[nH]c1=O" no
